These entries and their values trace back to paper PMC10786891.

MEASURED TARGET: T1, EsCas13d, nuclease-dead (Eubacterium siraeum, UniProt B0MS50, R295A;H300A;R849A;H854A)
T1 sequence: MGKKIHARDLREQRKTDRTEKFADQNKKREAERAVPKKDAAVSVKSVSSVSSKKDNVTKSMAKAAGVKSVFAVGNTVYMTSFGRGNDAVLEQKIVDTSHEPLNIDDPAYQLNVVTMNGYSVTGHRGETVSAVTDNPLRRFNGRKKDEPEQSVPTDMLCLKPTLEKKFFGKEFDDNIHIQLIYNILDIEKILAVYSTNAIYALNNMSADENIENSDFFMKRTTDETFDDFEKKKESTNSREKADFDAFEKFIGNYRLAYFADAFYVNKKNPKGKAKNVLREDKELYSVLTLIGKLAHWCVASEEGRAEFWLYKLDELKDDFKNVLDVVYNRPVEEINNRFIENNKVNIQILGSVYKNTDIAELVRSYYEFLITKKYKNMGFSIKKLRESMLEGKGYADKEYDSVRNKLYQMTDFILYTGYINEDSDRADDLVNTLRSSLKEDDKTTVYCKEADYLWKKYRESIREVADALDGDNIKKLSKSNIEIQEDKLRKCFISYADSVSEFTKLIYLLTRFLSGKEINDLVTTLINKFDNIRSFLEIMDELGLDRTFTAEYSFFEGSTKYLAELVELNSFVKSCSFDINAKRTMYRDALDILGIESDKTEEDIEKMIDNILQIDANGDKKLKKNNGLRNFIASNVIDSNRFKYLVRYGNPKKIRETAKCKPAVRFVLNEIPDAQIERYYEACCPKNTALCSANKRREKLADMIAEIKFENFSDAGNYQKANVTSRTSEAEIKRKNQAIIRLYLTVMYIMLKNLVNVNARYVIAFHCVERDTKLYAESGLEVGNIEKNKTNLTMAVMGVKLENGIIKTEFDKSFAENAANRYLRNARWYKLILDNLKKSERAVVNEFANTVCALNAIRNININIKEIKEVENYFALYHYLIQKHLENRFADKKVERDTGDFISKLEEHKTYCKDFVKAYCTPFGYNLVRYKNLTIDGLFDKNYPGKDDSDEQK
ASSAY REMARKS: crRNA (strand 1, pre-loaded); Mg2+; 40 mM Tris-HCl pH 7.5, 150 mM NaCl, 6 mM MgCl2, 1 mM DTT, 0.1% Tween-20, 0.2 mg/ml BSA; 25 C; 10 min per concentration, then washed
CONDITION: tags: His6-TwinStrep-SUMO cleaved; N-terminal SNAP kept (SNAP-Surface 488); label: 3' end held by stalled T7 RNA polymerase
Kd by entry:
Expressed in nM, but write only the number.

{"BINDER": "target 1 insC 3' of 15,insA 3' of 2 (mixed) RNA 1: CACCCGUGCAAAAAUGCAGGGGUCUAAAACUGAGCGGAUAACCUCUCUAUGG RNA 2: GGGAAUGGAUCCACAUCUACGAAUUCGUACCAUAGAGCAGGUUAUCCGCUCAACCGAGAUCGGAAGAGCACACGU", "EXPERIMENTAL READOUT": "Kd", "OBSERVED MEASUREMENT": 15.6}

Short answer for target 1 insA 3' of 13,insA 3' of 2 (mixed) RNA 1: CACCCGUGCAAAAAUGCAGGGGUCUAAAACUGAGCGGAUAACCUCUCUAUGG RNA 2: GGGAAUGGAUCCACAUCUACGAAUUCGUACCAUAGAGAGAGUUAUCCGCUCAACCGAGAUCGGAAGAGCACACGU : Kd was 3.1

Measured Kd, target 2 MT 5'PFS AGU 3'PFS AUA (mixed) RNA 1: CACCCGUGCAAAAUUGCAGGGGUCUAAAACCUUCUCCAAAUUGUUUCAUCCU RNA 2: GGGAAUGGAUCCACAUCUACGAAUUCAGUAGGAUGAAACAAUUUGGAGAAGAUAAGAUCGGAAGAGCACACGU : 10.3

Briefly, Kd measured for target 1 MT 5'PFS AAG 3'PFS CAU (mixed) RNA 1: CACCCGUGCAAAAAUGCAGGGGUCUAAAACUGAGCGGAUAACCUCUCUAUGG RNA 2: GGGAAUGGAUCCACAUCUACGAAUUCAAGCCAUAGAGAGGUUAUCCGCUCACAUAGAUCGGAAGAGCACACGU : 23
